Test system: 134 cancer cell lines
Test: Cell viability assay (ATPlite, 72 hours), IC50 on cancer cell line panel
Settings: Homo sapiens, Daoy, read-out: IC50 in cell proliferation assay
We begin with a simple list: items and their reported IC50.
RECORDED_METRIC: IC50 (µM)

• C[C@@H](Oc1cc(-c2cnn(C3CCNCC3)c2)cnc1N)c1c(Cl)ccc(F)c1Cl [crizotinib] = 2.34
• C=CC(=O)N1CCC[C@@H](n2nc(-c3ccc(Oc4ccccc4)cc3)c3c(N)ncnc32)C1 [ibrutinib] = 23.1

---

Target: panel of 255 wild-type kinases (Homo sapiens)
Assay: Kinase panel profiling at 1 µmol/L (MSA or IMAP), percentage inhibition
Assay type: biochemical
Conditions: kinase JNK2; 1 µmol/L single concentration; read-out: %-inhibition at 1 µmol/L, JNK2
RECORDED_METRIC: inhibition at 1 µM (%)

• Cc1nc(NC(=O)N2CCC[C@H]2C(N)=O)sc1-c1ccnc(C(C)(C)C(F)(F)F)c1 [alpelisib] = 0.494
• CCN1CCN(c2ccc(Nc3cc(N(C)C(=O)Nc4c(Cl)c(OC)cc(OC)c4Cl)ncn3)cc2)CC1 [infigratinib] = 2.8
• CCN1C(=O)N(c2c(F)c(OC)cc(OC)c2F)Cc2cnc3[nH]c(CN4CCOCC4)cc3c21 [pemigatinib] = 1.27
• COc1cc2ncnc(Nc3ccc(F)c(Cl)c3)c2cc1NC(=O)/C=C/CN1CCCCC1 [dacomitinib] = 1.27

---

Molecular target: panel of 255 wild-type kinases (Homo sapiens, UniProt Q13153)
Sequence (Q13153 whole entry): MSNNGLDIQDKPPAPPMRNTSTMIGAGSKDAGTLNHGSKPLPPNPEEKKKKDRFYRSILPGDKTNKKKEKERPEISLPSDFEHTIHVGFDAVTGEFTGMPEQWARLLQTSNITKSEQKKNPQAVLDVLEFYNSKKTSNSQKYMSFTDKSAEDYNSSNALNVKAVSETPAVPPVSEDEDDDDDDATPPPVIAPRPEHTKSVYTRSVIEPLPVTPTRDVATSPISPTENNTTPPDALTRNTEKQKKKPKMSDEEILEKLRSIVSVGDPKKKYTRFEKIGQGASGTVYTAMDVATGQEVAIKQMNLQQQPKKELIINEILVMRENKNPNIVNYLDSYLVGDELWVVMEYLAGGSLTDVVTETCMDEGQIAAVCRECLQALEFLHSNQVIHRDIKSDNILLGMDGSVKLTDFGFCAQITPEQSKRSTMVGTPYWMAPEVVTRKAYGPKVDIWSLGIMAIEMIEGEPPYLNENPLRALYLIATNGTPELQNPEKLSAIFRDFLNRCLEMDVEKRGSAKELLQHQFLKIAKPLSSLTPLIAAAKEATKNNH
Assay: Kinase panel profiling at 1 µmol/L (MSA or IMAP), percentage inhibition
Type: biochemical
Conditions: PAK1; 1 µmol/L single concentration; read-out: %-inhibition, PAK1
RECORDED_METRIC: inhibition at 1 µM (%)

• COC(=O)N[C@@H](C)CNc1nccc(-c2cn(C(C)C)nc2-c2cc(Cl)cc(NS(C)(=O)=O)c2F)n1 = 12
• CCN1CCN(c2ccc(Nc3cc(N(C)C(=O)Nc4c(Cl)c(OC)cc(OC)c4Cl)ncn3)cc2)CC1 = 5
• CN1CCN(c2ccc(C(=O)Nc3n[nH]c4ccc(Cc5cc(F)cc(F)c5)cc34)c(NC3CCOCC3)c2)CC1 = -10
• C[C@H]1Oc2cc(cnc2N)-c2c(nn(C)c2C#N)CN(C)C(=O)c2ccc(F)cc21 = -2.12
• O=C(Nc1cnn2ccc(N3CCC[C@@H]3c3cc(F)ccc3F)nc12)N1CC[C@H](O)C1 = -3.56
• FC(F)(F)c1ccc(CNc2ccc(Cc3c[nH]c4ncc(Cl)cc34)cn2)cn1 = 2
• Cn1cc(-c2cc3c(N4CCN(c5ncc([C@@](C)(N)c6ccc(F)cc6)cn5)CC4)ncnn3c2)cn1 = 0.845
• C=CC(=O)N1CCC([C@@H]2CCNc3c(C(N)=O)c(-c4ccc(Oc5ccccc5)cc4)nn32)CC1 = -2.56
• CCn1c(=O)c(-c2cc(NC(=O)Nc3ccccc3)c(F)cc2Br)cc2cnc(NC)cc21 = 0.719
• C[C@H](Nc1ncnc2nc[nH]c12)c1cc2cccc(Cl)c2c(=O)n1-c1ccccc1 = -0.68
• COc1cc2ncnc(Nc3ccc(F)c(Cl)c3)c2cc1NC(=O)/C=C/CN1CCCCC1 = 0.38
• Cc1cc(Nc2ncnc3ccc(NC4=NC(C)(C)CO4)cc23)ccc1Oc1ccn2ncnc2c1 = -1.11
• Cn1cnc2c(F)c(Nc3ccc(Br)cc3Cl)c(C(=O)NOCCO)cc21 = 7
• CCc1nc(C(N)=O)c(Nc2ccc(N3CCC(N4CCN(C)CC4)CC3)c(OC)c2)nc1NC1CCOCC1 = 4
• Cc1nc(NC(=O)N2CCC[C@H]2C(N)=O)sc1-c1ccnc(C(C)(C)C(F)(F)F)c1 = -3.29
• CO[C@]1(C(=O)N[C@@H](C)c2ccc(-n3cc(F)cn3)nc2)CC[C@H](c2nc(C)cc(Nc3cc(C)[nH]n3)n2)CC1 = 9
• CCN1C(=O)N(c2c(F)c(OC)cc(OC)c2F)Cc2cnc3[nH]c(CN4CCOCC4)cc3c21 = -3.62
• Cn1cnc2c(F)c(Nc3ccc(Br)cc3F)c(C(=O)NOCCO)cc21 = 5
• COc1ccc(CN2C3CC2CN(c2ccc(-c4cc(OCC(C)(C)O)cn5ncc(C#N)c45)cn2)C3)cn1 = -5.31

---

Target: UniProtKB P30530
Sequence (P30530 26-894): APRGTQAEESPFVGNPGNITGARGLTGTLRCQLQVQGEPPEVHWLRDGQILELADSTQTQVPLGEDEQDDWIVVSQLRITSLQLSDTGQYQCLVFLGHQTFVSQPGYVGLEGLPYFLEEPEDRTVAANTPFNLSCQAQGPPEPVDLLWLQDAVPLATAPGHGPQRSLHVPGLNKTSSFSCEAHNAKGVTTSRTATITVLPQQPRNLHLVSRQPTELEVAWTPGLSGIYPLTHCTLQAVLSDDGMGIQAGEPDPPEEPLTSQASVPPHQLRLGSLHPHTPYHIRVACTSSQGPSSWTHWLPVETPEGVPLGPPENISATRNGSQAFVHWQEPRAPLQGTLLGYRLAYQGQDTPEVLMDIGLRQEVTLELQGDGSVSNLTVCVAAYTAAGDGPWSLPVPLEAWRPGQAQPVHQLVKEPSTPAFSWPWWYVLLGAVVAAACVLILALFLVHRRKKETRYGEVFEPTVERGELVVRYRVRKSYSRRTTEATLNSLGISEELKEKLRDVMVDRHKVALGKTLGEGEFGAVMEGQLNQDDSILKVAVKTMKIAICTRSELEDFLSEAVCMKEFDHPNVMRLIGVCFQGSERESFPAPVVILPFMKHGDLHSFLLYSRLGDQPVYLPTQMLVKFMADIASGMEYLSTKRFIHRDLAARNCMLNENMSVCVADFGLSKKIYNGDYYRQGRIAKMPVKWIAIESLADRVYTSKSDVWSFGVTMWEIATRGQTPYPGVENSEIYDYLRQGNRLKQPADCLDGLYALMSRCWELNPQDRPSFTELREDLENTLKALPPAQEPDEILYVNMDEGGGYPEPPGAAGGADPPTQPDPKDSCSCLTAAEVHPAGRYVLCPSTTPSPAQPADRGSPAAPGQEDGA
Assay: Kinase panel profiling at 1 µmol/L (MSA or IMAP), percentage inhibition
Assay type: biochemical
Conditions: AXL kinase assay; 1 µmol/L single concentration; read-out: %-inhibition AXL
RECORDED_METRIC: inhibition at 1 µM (%)

• CCN1C(=O)N(c2c(F)c(OC)cc(OC)c2F)Cc2cnc3[nH]c(CN4CCOCC4)cc3c21 = 4.45
• COc1ccc(CN2C3CC2CN(c2ccc(-c4cc(OCC(C)(C)O)cn5ncc(C#N)c45)cn2)C3)cn1 = 93
• C[C@H]1Oc2cc(cnc2N)-c2c(nn(C)c2C#N)CN(C)C(=O)c2ccc(F)cc21 = 8
• Cn1cnc2c(F)c(Nc3ccc(Br)cc3Cl)c(C(=O)NOCCO)cc21 = 26
• Cn1cc(-c2cc3c(N4CCN(c5ncc([C@@](C)(N)c6ccc(F)cc6)cn5)CC4)ncnn3c2)cn1 = 37
• O=C(Nc1cnn2ccc(N3CCC[C@@H]3c3cc(F)ccc3F)nc12)N1CC[C@H](O)C1 = 4.22
• CCc1nc(C(N)=O)c(Nc2ccc(N3CCC(N4CCN(C)CC4)CC3)c(OC)c2)nc1NC1CCOCC1 = 100
• CCn1c(=O)c(-c2cc(NC(=O)Nc3ccccc3)c(F)cc2Br)cc2cnc(NC)cc21 = 4
• COC(=O)N[C@@H](C)CNc1nccc(-c2cn(C(C)C)nc2-c2cc(Cl)cc(NS(C)(=O)=O)c2F)n1 = 0.276
• Cc1nc(NC(=O)N2CCC[C@H]2C(N)=O)sc1-c1ccnc(C(C)(C)C(F)(F)F)c1 = -3.59
• C=CC(=O)N1CCC([C@@H]2CCNc3c(C(N)=O)c(-c4ccc(Oc5ccccc5)cc4)nn32)CC1 = 4.56
• Cc1cc(Nc2ncnc3ccc(NC4=NC(C)(C)CO4)cc23)ccc1Oc1ccn2ncnc2c1 = 22
• CN1CCN(c2ccc(C(=O)Nc3n[nH]c4ccc(Cc5cc(F)cc(F)c5)cc34)c(NC3CCOCC3)c2)CC1 = 96
• C[C@H](Nc1ncnc2nc[nH]c12)c1cc2cccc(Cl)c2c(=O)n1-c1ccccc1 = -0.298
• CO[C@]1(C(=O)N[C@@H](C)c2ccc(-n3cc(F)cn3)nc2)CC[C@H](c2nc(C)cc(Nc3cc(C)[nH]n3)n2)CC1 = 92

---

System: 134 cancer cell lines
Assay: Cell viability assay (ATPlite, 72 hours), IC50 on cancer cell line panel
Settings: Homo sapiens, BT-549, read-out: IC50 in cell proliferation assay, cell line BT-549
RECORDED_METRIC: IC50 (µM)

* CCCS(=O)(=O)Nc1ccc(F)c(C(=O)c2c[nH]c3ncc(-c4ccc(Cl)cc4)cc23)c1F [vemurafenib] | 31.2
* CC(C)(C)c1nc(-c2cccc(NS(=O)(=O)c3c(F)cccc3F)c2F)c(-c2ccnc(N)n2)s1 [dabrafenib] | 1.53
* Cc1cc(Nc2ncnc3ccc(NC4=NC(C)(C)CO4)cc23)ccc1Oc1ccn2ncnc2c1 [tucatinib] | 15.9
* COc1cc2ncnc(Nc3ccc(F)c(Cl)c3)c2cc1NC(=O)/C=C/CN1CCCCC1 [dacomitinib] | 3.68
* CC(=O)Nc1cccc(-n2c(=O)n(C3CC3)c(=O)c3c(Nc4ccc(I)cc4F)n(C)c(=O)c(C)c32)c1 [trametinib] | 0.314

---

Target: panel of 255 wild-type kinases (Homo sapiens, UniProt Q05655)
Sequence (Q05655 whole entry): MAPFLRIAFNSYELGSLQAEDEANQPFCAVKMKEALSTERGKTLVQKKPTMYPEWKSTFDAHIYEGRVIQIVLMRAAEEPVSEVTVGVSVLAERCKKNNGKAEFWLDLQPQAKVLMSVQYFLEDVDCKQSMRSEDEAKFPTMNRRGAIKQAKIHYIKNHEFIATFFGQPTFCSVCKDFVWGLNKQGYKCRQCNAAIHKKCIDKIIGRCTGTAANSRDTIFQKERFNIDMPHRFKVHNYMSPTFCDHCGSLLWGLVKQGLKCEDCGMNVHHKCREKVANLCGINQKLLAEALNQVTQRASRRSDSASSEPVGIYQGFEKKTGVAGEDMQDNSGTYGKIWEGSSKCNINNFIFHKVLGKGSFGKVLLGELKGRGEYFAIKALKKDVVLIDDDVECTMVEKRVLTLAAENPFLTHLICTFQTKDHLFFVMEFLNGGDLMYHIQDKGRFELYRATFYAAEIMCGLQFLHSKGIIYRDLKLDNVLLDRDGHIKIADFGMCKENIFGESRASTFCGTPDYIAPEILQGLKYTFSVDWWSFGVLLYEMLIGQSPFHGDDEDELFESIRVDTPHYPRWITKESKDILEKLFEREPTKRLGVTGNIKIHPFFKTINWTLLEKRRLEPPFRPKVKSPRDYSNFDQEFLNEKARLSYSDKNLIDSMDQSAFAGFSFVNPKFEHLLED
Experiment: Kinase panel profiling at 1 µmol/L (MSA or IMAP), percentage inhibition
Assay type: biochemical
Settings: kinase PKCδ; 1 µmol/L single concentration; read-out: %-inhibition at 1 µmol/L, PKCδ
Each entry below lists one item and its recorded inhibition at 1 µM value.
RECORDED_METRIC: inhibition at 1 µM (%)

- CCN1C(=O)N(c2c(F)c(OC)cc(OC)c2F)Cc2cnc3[nH]c(CN4CCOCC4)cc3c21 [pemigatinib]: 0.471
- CN1CCN(c2ccc(C(=O)Nc3n[nH]c4ccc(Cc5cc(F)cc(F)c5)cc34)c(NC3CCOCC3)c2)CC1 [entrectinib]: 8
- CCN1CCN(c2ccc(Nc3cc(N(C)C(=O)Nc4c(Cl)c(OC)cc(OC)c4Cl)ncn3)cc2)CC1 [infigratinib]: -3
- Cc1cc(Nc2ncnc3ccc(NC4=NC(C)(C)CO4)cc23)ccc1Oc1ccn2ncnc2c1 [tucatinib]: 2.67
- C[C@H](Nc1ncnc2nc[nH]c12)c1cc2cccc(Cl)c2c(=O)n1-c1ccccc1 [duvelisib]: 1.67
- CCn1c(=O)c(-c2cc(NC(=O)Nc3ccccc3)c(F)cc2Br)cc2cnc(NC)cc21 [ripretinib]: 54
- CO[C@]1(C(=O)N[C@@H](C)c2ccc(-n3cc(F)cn3)nc2)CC[C@H](c2nc(C)cc(Nc3cc(C)[nH]n3)n2)CC1 [pralsetinib]: -3
